Consider the following binders and their measured EC50 readings.
# target_or_test_system: T1, human IL-11 (human, UniProt P20809 22-199, limits assumed)
# T1 construct: also called IL-11 antigen; IL-11 protein
# T1 sequence (looked up): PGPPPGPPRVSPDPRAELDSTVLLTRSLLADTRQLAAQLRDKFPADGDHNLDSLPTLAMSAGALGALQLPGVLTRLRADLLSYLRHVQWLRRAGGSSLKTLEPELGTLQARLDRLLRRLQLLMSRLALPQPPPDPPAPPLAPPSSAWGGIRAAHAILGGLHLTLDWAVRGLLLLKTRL
# protocol_description: ELISA, IL-11 coated, goat anti-human IgG Fab HRP detection
Respond with the bare value in µg/mL.

Worked set:
[
  {
    "binder": "humanized antibody molecule HA-II-A (antibody, human IgG1, kappa, L234A L235A, V domains shown) VH: QVQLVESGGGLVKPGGSLRLSCAASGFTFSDYYMFWVRQAPGKGLEWVATISDGGTYTYYPDSVKGRFTISRDNAKNSLYLQMNSLRAEDTAVYYCARDGGYVSSPEAMDYWGQGTLVTVSS VL: DIVLTQSPSSLSASVGDRVTITCRASQDISNYLNWYQQKPGKAPKLLIYYTSRLHSGVPSRFSGSGSGTDFTFTISSLQPEDIATYYCQQGNTLPWTFGGGTKVEIKR",
    "recorded_value": 0.102
  },
  {
    "binder": "humanized antibody molecule HA-II-D (antibody, human IgG1, kappa, L234A L235A, V domains shown) VH: QVQLVESGGGLVKPGGSLRLSCAASGFTFSDYYMFWVRQAPGKGLEWVATISDGGTYTYYPDSVKGRFTISRDNAKNSLYLQMNSLRAEDTAMYYCARDGGYVSSPEAMDYWGQGTSVTVSS VL: DIVLTQSPSSLSASVGDRVTITCRASQDISNYLNWYQQKPGGTVKLLIYYTSRLHSGVPSRFSGSGSGTDYTFTISSLQPEDIATYFCQQGNTLPWTFGGGTKVEIKR",
    "recorded_value": 0.0585
  }
]

Please give the measured EC50 for this binder: humanized antibody molecule HA-I-A (antibody, human IgG1, kappa, L234A L235A, V domains shown, anti-IL-11 monoclonal antibody HA-I-A) VH: QVQLVESGGGLVKPGGSLRLSCAASGFTFSDYYMFWVRQAPGKGLEWVATISDGGTYTYYPDSVKGRFTISRDNAKNSLYLQMNSLRAEDTAVYYCARDGGYVSSPEAMDYWGQGTLVTVSS VL: DIVLTQSPSSLSASVGDRVTITCRASQDISNYLNWYQQKPGKAPKLLIYYTSRLHSGVPSRFSGSGSGTDFTFTISSLQPEDIATYYCQQGNTLPPTFGGGTKVEIKR 0.0204

Using the record for humanized antibody molecule HA-I-B (antibody, human IgG1, kappa, L234A L235A, V domains shown) VH: QVQLVESGGGLVKPGGSLRLSCAASGFTFSDYYMFWVRQAPGKGLEWVSTISDGGTYTYYPDSVKGRFTISRDNAKNSLYLQMNSLRAEDTAVYYCARDGGYVSSPEAMDYWGQGTLVTVSS VL: DIVLTQSPSSLSASVGDRVTITCRASQDISNYLNWYQQKPGKAPKLLIYYTSRLHSGVPSRFSGSGSGTDYTFTISSLQPEDIATYYCQQGNTLPPTFGGGTKVEIKR , report its EC50. 0.0232

Which EC50 is reported for this binder? humanized antibody molecule HA-II-C (antibody, human IgG1, kappa, L234A L235A, V domains shown) VH: QVQLVESGGGLVKPGGSLRLSCAASGFTFSDYYMFWVRQAPGKGLEWVSTISDGGTYTYYPDSVKGRFTISRDNAKNSLYLQMNSLRAEDTAVYYCARDGGYVSSPEAMDYWGQGTLVTVSS VL: DIVLTQSPSSLSASVGDRVTITCRASQDISNYLNWYQQKPGKAPKLLIYYTSRLHSGVPSRFSGSGSGTDYTFTISSLQPEDIATYYCQQGNTLPWTFGGGTKVEIKR 0.0849

// query EC50 value for entry humanized antibody molecule HA-I-D (antibody, human IgG1, kappa, L234A L235A, V domains shown) VH: QVQLVESGGGLVKPGGSLRLSCAASGFTFSDYYMFWVRQAPGKGLEWVATISDGGTYTYYPDSVKGRFTISRDNAKNSLYLQMNSLRAEDTAMYYCARDGGYVSSPEAMDYWGQGTSVTVSS VL: DIVLTQSPSSLSASVGDRVTITCRASQDISNYLNWYQQKPGGAVKLLIYYTSRLHSGVPSRFSGSGSGTDYTFTISSLQPEDIATYFCQQGNTLPPTFGGGTKVEIKR 0.0261

# query: EC50 of entry humanized antibody molecule HA-II-B (antibody, human IgG1, kappa, L234A L235A, V domains shown) VH: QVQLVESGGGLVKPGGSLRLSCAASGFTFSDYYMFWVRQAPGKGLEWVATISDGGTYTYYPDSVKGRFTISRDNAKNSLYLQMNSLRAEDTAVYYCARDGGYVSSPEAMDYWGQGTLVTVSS VL: DIVLTQSPSSLSASVGDRVTITCRASQDISNYLNWYQQKPGKAPKLLIYYTSRLHSGVPSRFSGSGSGTDYTFTISSLQPEDIATYYCQQGNTLPWTFGGGTKVEIKR 0.0883

Any idea what EC50 was measured for humanized antibody molecule HA-I-C (antibody, human IgG1, kappa, L234A L235A, V domains shown) VH: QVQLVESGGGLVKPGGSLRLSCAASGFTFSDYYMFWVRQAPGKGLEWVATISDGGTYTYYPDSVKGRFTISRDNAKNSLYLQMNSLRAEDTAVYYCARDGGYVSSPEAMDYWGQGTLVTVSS VL: DIVLTQSPSSLSASVGDRVTITCRASQDISNYLNWYQQKPGKAVKLLIYYTSRLHSGVPSRFSGSGSGTDYTFTISSLQPEDIATYFCQQGNTLPPTFGGGTKVEIKR ? 0.0252

The measured values listed here are drawn from patent EP4722243A1.
